test system: Staphylococcus aureus; assay: Antibacterial activity against methicillin-resistant Staphylococcus aureus assessed as bacterial growth inhibition by CLSI protocol based assay; type: functional
ENDPOINT: MIC (mg/L)
Field format: number, assumed mg/L, no unit text.

| COMPOUND | ENDPOINT | NUMBER |
| --- | --- | --- |
| C/C=C(\C)c1cc(O)c(C)c(O)c1C(=O)Oc1cc2c(c(O)c1C)C(=O)O[C@@]2(C)CC | MIC | 200 |
| C/C=C(\C)c1cc(O)c(C)c2c1Oc1c(C)c(O)cc(/C(C)=C/C)c1C(=O)O2 | MIC | 1 |
| C/C=C(\C)c1c(Cl)c(OC)c(C)c2c1Oc1c(Cl)c(O)c(Cl)c(C)c1C(=O)O2 | MIC | 8 |
| C/C=C(\C)c1cc(O)c(C)c(O)c1C(=O)Oc1cc(/C(C)=C/C)c(C(=O)O)c(O)c1C [AGONODEPSIDE B] | MIC | 16 |
| C/C=C(\C)c1cc(O)c(C)c2c1Oc1cc(O)c(Cl)c(C)c1C(=O)O2 | MIC | 8 |

Value of measured MIC for the entry C/C=C(\C)c1cc(O)c(C)c(OC(=O)c2c(/C(C)=C/C)cc(O)c(C)c2O)c1 [AGONODEPSIDE A] : 2

Value of measured MIC for the entry "C/C=C(\C)c1c(Cl)c(O)c(C)c2c1Oc1c(Cl)c(O)c(Cl)c(C)c1C(=O)O2" : 2

Value of measured MIC for the entry "C/C=C(\C)c1cc(OC(=O)c2c(C)cc(O)cc2O)c(C)c(O)c1C(=O)O" : 128

Value of measured MIC for the entry "C/C=C(\C)c1cc(O)c(C)c2c1C(=O)Oc1c(C)c(O)c(Cl)c(/C(C)=C/C)c1O2" : 0.5

Value of measured MIC for the entry "C/C=C(\C)c1c(Cl)c(O)c(C)c2c1Oc1cc(O)c(Cl)c(C)c1C(=O)O2" : 1

Value of measured MIC for the entry "C/C=C(\C)c1cc(O)c(C)c2c1C(=O)Oc1c(C)c(O)c(C(=O)O)c(/C(C)=C/C)c1O2" : 64
